# Test system: CAKI-1 renal
# measurement protocol: NCI-60 one-dose screen, 48 h
# assay context: 10 µM unless noted
About 83,000 compounds went through this panel and 20% of them were active in at least one assay; those are over-represented in the sample as a whole. Activity calls are given as the source filed them. Rule for the calls: active = growth percent below 10; inactive = the rest.
API: response.call in t (active), f (inactive)

Prompt: I would be grateful if you could indicate the recorded call for "CCN(CC)Cc1cc(Nc2cc(C(F)(F)F)c(C#N)c3nc4ccccc4n23)ccc1O" .
Response: t

Prompt: Then "Cc1cccc(Cl)c1NC(=O)c1cnc(Nc2cc(N3CCOCC3)cc(N3CCOCC3)c2)s1" ?
Response: t

Prompt: Moving on to the next molecule: "CC(=O)c1c(C)c2cnc(Nc3ccc(N4CCNCC4)cn3)nc2n(C2CCCC2)c1=O"
Response: f

Prompt: Cool, now COc1ccc(C2CC(=O)c3c(O)c(OC)c(OC)c(OC)c3O2)c(O)c1 (stereo not drawn)
Response: f

Prompt: Continue with "Cc1cnc(Nc2ccc(OCCN3CCCC3)cc2)nc1Nc1cccc(S(=O)(=O)NC(C)(C)C)c1"
Response: t

Prompt: Next entry: "O=C(Cn1ccnc1)Nc1ccc(-c2nc3ccccc3s2)cc1"
Response: f

Prompt: Param item: "COc1cnc2c(c1)C(=O)c1c-2n(CCCN2CCC(N)CC2)c(=O)c2cc([N+](=O)[O-])ccc12"
Response: f

Prompt: Moving on to the next molecule: COc1cc(C2CC(c3ccc(Cl)cc3)=NN2c2ccc(Cl)cc2)cc(OC)c1OC (stereo not drawn)
Response: f

Prompt: Another: "CCN(CC)CCOc1ccc(/C(=C(\C)c2ccc(Cl)cc2)c2ccc(Cl)cc2)cc1"
Response: f

Prompt: Queued: "CNC(=O)c1cc(Oc2ccc3nc(NC(=O)Nc4ccc(Cl)c(C(F)(F)F)c4)sc3c2)ccn1"
Response: f

Prompt: Repeat for the following molecule: "Cc1cc(-c2cc(O)ccc2Cl)cc2nnc(Nc3ccc(OCCN4CCCC4)cc3)nc12"
Response: t

Prompt: Similarly, "NC(=O)c1c(OCc2c(F)cc(Br)cc2F)nsc1NC(=O)NCCCCN1CCCC1" ?
Response: t

* * *

# Tested on: HOP-62 NSCLC
# measurement protocol: NCI-60 one-dose screen, 48 h
# assay context: 10 µM unless noted
About 83,000 compounds went through this panel and 20% of them were active in at least one assay; those are over-represented in the sample as a whole. Calls of active or inactive are those of the source. Rule for the calls: active = growth percent below 10; inactive = the rest.
Your answer must be one of the following: active, inactive

Use these answered entries as a reference point.
compound | class assignment
COc1ccc2c(CCC(c3ccccc3)c3ccccc3)c3[n+](cc2c1OC)CCc1cc2c(cc1-3)OCO2 | active
N#Cc1c(-c2ccc(C(F)(F)F)cc2)cc(NCC2CCS(=O)(=O)CC2)n2c1nc1ccccc12 | inactive
C/C(=C(/c1ccc(Cl)cc1)c1ccc(OCCN2CCCCC2)cc1)c1ccccc1 | inactive
CCN1CCN(c2nc(C)cc(N(CCNc3ccnc4cc(Cl)ccc34)Cc3ccc4c(c3)OCO4)n2)CC1 | active
CN1CCN(CCOc2cc(OC3CCOCC3)c3c(Nc4c(Cl)ccc5c4OCO5)ncnc3c2)CC1 | inactive
Cc1oc2c(C(=O)N/N=C\c3ccc(O)cc3O)c[nH]c2c1C | inactive
CC1(C=O)NC(=O)NC1=O (centres undefined) | inactive
C#Cc1cccc(Nc2ncnc3cc(OC)c(OCCCCCCC(=O)NO)cc23)c1 | active
C=CC(=O)Nc1cc2c(Nc3ccc(F)c(Cl)c3)ncnc2cc1C#CC(C)(C)N1CCN(C)CC1 | active
C=C1C(=O)O[C@H]2[C@H]1CC/C(Cn1cc(-c3cc(C)c(C)cc3C)nn1)=C\CC[C@@]1(C)O[C@@H]21 | inactive

Prompt: So what was the verdict on "O=C(Cn1cncn1)Nc1ccc(-c2nc3ccccc3s2)cc1" in this test?
Response: inactive

Prompt: Please answer likewise for "Cc1ccc(-c2nc3ccc(Cl)cn3c2NC2CCCCC2)o1"
Response: inactive

Prompt: # iterate: "CCN1CCN(c2cc(C)nc(N(CCCNc3ccnc4cc(Cl)ccc34)Cc3ccc4c(c3)OCO4)n2)CC1"
Response: active

Prompt: Please do the same for "NC(=O)c1n[nH]n2c1nc(=O)c1c3c(sc12)CCCC3" as well.
Response: inactive

Prompt: What do we get for Clc1ccc(C(Cn2ccnc2)OCc2ccsc2Cl)c(Cl)c1 (centres undefined) ?
Response: inactive

Prompt: Now try "Clc1ccc(Nc2nccc(Nc3ccc4[nH]ncc4c3)n2)cc1" .
Response: inactive

* * *

# Test system: OVCAR-5 ovarian
# measurement protocol: NCI-60 one-dose screen, 48 h
# assay context: 10 µM unless noted
About 83,000 compounds went through this panel and 20% of them were active in at least one assay; those are over-represented in the sample as a whole. Calls of active or inactive are those of the source. How the source made its calls: active means growth percent below 10; inactive means the rest.
Valid outcomes are listed here; reply with one: 1 (yes) for active, 0 (no) for inactive

Example cases with answers are listed next.
compound | class assignment
Clc1nc(Cl)c2ncn(C/C=C\Cn3cnc4c(Cl)nc(Cl)nc43)c2n1 | 1 (yes)
COc1cc(C(=O)NNC(=O)c2ccc(NC(=O)CCl)cc2)cc(OC)c1OC | 0 (no)
COc1cc2c(Oc3ccc(NC(=O)C4(C(=O)Nc5ccc(F)cc5)CC4)cc3F)ccnc2cc1OCCCN1CCOCC1 | 0 (no)

Prompt: Lab log entry: "O=C(NC[C@H](O)CO)c1ccncc1Nc1ccc(I)cc1F" — outcome as called in the assay?
Response: 1 (yes)

Prompt: Please do the same for "N[C@@H]1CCCN(c2c(/C=C3\SC(=O)NC3=O)cccc2-c2ccccc2)C1" as well.
Response: 0 (no)

Prompt: How about "O=C(/C=C/c1ccc2c(c1)OCO2)c1c(O)c2ccccc2oc1=O" ?
Response: 0 (no)

Prompt: Here is the next compound: Cc1nn(-c2ccccc2)c2c1N=c1s/c(=C\c3cn(-c4ccccc4)nc3-c3ccc(Cl)cc3)c(=O)n1C(C)N2 (centres undefined)
Response: 0 (no)

Prompt: "NC1=Nc2cc(OCCCN3Cc4ccccc4C3)c(OCC3CC3)cc2C12CCCC2" ?
Response: 0 (no)

* * *

# Tested on: OVCAR-5 ovarian
# measurement protocol: NCI-60 one-dose screen, 48 h
# assay context: 10 µM unless noted
# Description: Growth inhibition of the OVCAR-5 human tumor cell line is measured as a screen for anti-cancer activity. Cells are grown in 96 well plates and exposed to the test compound for 48 hours. Compounds are tested at a single concentration, which is 10^-5 M for most compounds. The reported endpoint is percent growth (GI% or GIPRCNT), where numbers from 0 - 100% represent growth inhibition, and numbers from -100% - 0 represent cell death. For example, a value of 40 represents 60% growth inhibition. […]
Compounds without any hit were thinned out: in the full panel of roughly 83,000, 20% have a hit. The source made the active and inactive calls. Rule for the calls: active = growth percent below 10; inactive = the rest.
Respond only with the outcome that fits, drawn from active, inactive

Record excerpt, results attached:
smiles str | target system | class assignment
COc1ccc2nc3cc(Cl)ccc3c(Nc3ccc(N(C)C)cc3)c2c1 | OVCAR-5 ovarian | inactive
CCc1cc2c(c3ccc(C(=O)CBr)cc13)CCCC2 | OVCAR-5 ovarian | inactive

Prompt: Could you kindly confirm the outcome this assay logged for "COc1ccc2c(CCCCC(c3ccccc3)c3ccccc3)c3[n+](cc2c1OC)CCc1cc2c(cc1-3)OCO2" ?
Response: active

* * *

# Tested on: RPMI-8226 leukemia
# measurement protocol: NCI-60 one-dose screen, 48 h (100 = growth as untreated, 0 = no growth, -100 = all killed)
# assay context: 10 µM unless noted
The panel holds about 83,000 compounds, 20% with a hit somewhere; the sample as a whole holds those more often.
parameter measured: growth (%)
Your answer is read as %, so omit the unit and give the number.

compound | growth [%]
CCN1CCN(Cc2ccc(Cc3ncc(F)c(-c4cc(F)c5nc(C)n(C(C)C)c5c4)n3)nc2)CC1 | 44.8
COC(=O)[C@]12CC[C@@H](C)[C@H](C)[C@@H]1C1=CC[C@@H]3[C@@]4(C)C(c5cnco5)=C[C@@](C)(CO)C4=CC[C@@]3(C)[C@]1(C)CC2 | 26.1

Prompt: For "Nc1ncnc2c1ccn2-c1cccc(NC(=O)c2ccc(N3CCOCC3)c(C(F)(F)F)c2)c1" , what is its reported growth?
Response: 4.92

Prompt: Then this compound: "Clc1ccc2c(NCCNc3nc(N4CCCC4)nc4ccccc34)ccnc2c1"
Response: -18.2

Prompt: Also "Cc1ccc(N=C2CSc3nnc(-c4csc5c4CCCC5)n3N2)cc1" , if possible.
Response: 24.7

Prompt: Input "COc1cccc(Nc2ncnn3ccc(CN4CC[C@@H](N)[C@H](O)C4)c23)c1"
Response: 65.7

Prompt: Another: "COc1ccc2c(CCCc3ccc(Cl)cc3Cl)c3[n+](cc2c1OC)CCc1cc2c(cc1-3)OCO2"
Response: -24.5

Prompt: Another: "C[C@@]1(C(=O)Nc2ccc(F)nc2)CCCN1c1nc(Nc2cc(C3CC3)[nH]n2)c2cccn2n1"
Response: 62.1

Prompt: Follow-up entry: "CCCCCCCCCCCC[n+]1ccccc1"
Response: -39.2

Prompt: How about this compound: "C[C@@H](Oc1cc(-n2cnc3ccc(CN4CCN(C)CC4)cc32)sc1C(N)=O)c1ccccc1C(F)(F)F"
Response: 34.2

Prompt: Same question, "COc1cnc2c(c1)C(=O)c1c-2n(CCCn2ccnc2)c(=O)c2cc(Cl)ccc12" this time
Response: -15.3

The values you see were collected from PubChem BioAssay (NCI).
